The measured values listed here are drawn from PubChem BioAssay.

# maps each entry to its NADPH fluorescence slope
SYSTEM_TESTED: Voltage-gated potassium channel subunit beta-2 (Rattus norvegicus)
ASSAY_INFO: KvBeta positive modulators, primary screen, biochemical, NADPH fluorescence (AID 623);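 also: fluorescence intensity change per second fitted from 20 to 320 s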
CONDITION_LABEL: Recombinant KvBeta, NADPH fluorescence decrease slope, 10 min; at 10 µM; active compounds read low
Activity calls are given as the source filed them.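 The calls were made as follows: active = NADPH fluorescence slope more negative than the mean of all samples by about 3 SD, 99.7% confidence; inactive = the rest.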
MEASURED_PARAMETER: NADPH fluorescence slope

                                    molecule       endpoint_result
 0  Cc1cc(=O)oc(C)c1C(=O)n1nc(C)c2c1C[C@@H]1[C@H]2C1(C)C   -3.7e-05 (inactive)
 1  CCOC(=O)C1=C(C)NC(=O)NC1c1ccc(OCCO)c(OC)c1 (configuration not stated)   -4.3e-05 (inactive)
 2  CCOCCOc1nc2c(c(=O)n(C)c(=O)n2C)n1Cc1ccc(C)cc1    5.4e-05 (inactive)
 3      CC1(C)NC(=O)N(CCOc2cccc(Cl)c2Cl)C1=O   -6.5e-06 (inactive)
 4     CCSc1oc(-c2cccs2)nc1S(=O)(=O)c1ccccc1   -3.1e-05 (inactive)
 5          COC(=O)CCc1c(C)[nH]c(=S)[nH]c1=O   -2.4e-05 (inactive)
 6            O=C(COc1ccc(Cl)cc1)Nc1ccccc1CO  -0.000143 (inactive)
 7  N#Cc1cccc(-n2c(-c3ccccc3)nnc2-c2ccccc2)c1C#N   -6.3e-05 (inactive)
 8  O=C1CN(C(=O)COC(=O)c2ccccc2NC(=O)c2ccco2)c2ccccc2N1   -8.2e-05 (inactive)
 9  N#CCSc1nc2c(c(=O)n1Cc1ccco1)C1(CCCC1)Cc1ccccc1-2   -2.2e-05 (inactive)
10  COC(=O)c1ccc(C2/C(=C(/O)c3ccc(OC)cc3)C(=O)C(=O)N2Cc2ccco2)cc1 (configuration not stated)    4.5e-06 (inactive)
11          O=C(NCCN1CCCCC1)/C(=N\O)c1ccccc1   -3.3e-05 (inactive)
12               O=c1[nH]c2cnccc2n1-c1ccccc1   -4.6e-05 (inactive)
13  Cc1cc(C)nc(SCC(=O)Nc2ncc3c(n2)CCCC3=O)n1   -1.1e-05 (inactive)
14            COc1ccc(-c2nc(C)sc2CC(=O)O)cc1   -8.6e-06 (inactive)
15        O=C(c1ccco1)N1CCN(c2ccc(Cl)cc2)CC1    7.7e-05 (inactive)
16                COc1ccc2c(c1)cc(C(=O)O)n2C   -6.4e-05 (inactive)
17         CCc1ccc(CCC(=O)Nc2ccc(C)c(C)c2)o1   -5.2e-05 (inactive)
18  CCNc1ccc(C(=O)OCC)cc1NC(=O)c1cc(S(=O)(=O)N2CCOCC2)ccc1C    4.9e-05 (inactive)
19  O=C(O)C1CCCN(S(=O)(=O)c2ccc(Cl)s2)C1 (configuration not stated)   -2.9e-05 (inactive)
20  CCCOc1ccc(N2CC(C(=O)Nc3ccc4c(c3)OCO4)CC2=O)cc1 (configuration not stated)   -2.5e-06 (inactive)
21  C=CCn1c(=O)c2ccccc2n2c(SCC(=O)Nc3cc(C)on3)nnc12   -4.3e-05 (inactive)
22  COc1ccc(Cl)cc1N1CC(c2nc3ccccc3[nH]2)CC1=O (configuration not stated)    6.8e-06 (inactive)
23  CCOC(=O)C1C2C=CC3(CN(Cc4ccco4)C(=O)C13)O2 (configuration not stated)   -6.4e-05 (inactive)
24    CCn1c(=O)cc(OCC(=O)NC2CCCCC2)c2ccccc21    1.1e-05 (inactive)
25               Cc1cc(OCC(=O)NCCO)cc(C)c1Cl    2.8e-05 (inactive)
26  CCOC(=O)C(NC(=O)Nc1ccccc1)(OCC)C(F)(F)F (configuration not stated)    1.8e-05 (inactive)
27  CCOC(=O)Nc1ccc2c(c1)N(C(=O)OCCN(C)C)c1ccccc1CC2   -2.3e-05 (inactive)
28                Cn1c(SCC(=O)O)nnc1C1CCCCC1   -8.3e-06 (inactive)
29            Cn1nnc2cc(C(=O)N3CCCCCC3)ccc21   -4.7e-05 (inactive)
30                  CN1CCC(NC(=O)c2cccs2)CC1     -5e-05 (inactive)
31  CCOC(=O)c1ccc(COC(=O)c2cc3ccccc3oc2=O)o1    1.6e-06 (inactive)
32  Cc1nc(NC(=O)C23CCC(C)(C(=O)O2)C3(C)C)sc1C (configuration not stated)    8.7e-06 (inactive)
33  CCOc1cccc(C(=O)N2CCCCC2c2cccnc2)c1 (configuration not stated)   -4.2e-05 (inactive)
34          CCCn1c(-c2ccc(F)cc2)cnc1SCC(=O)O   -3.6e-05 (inactive)
35  COc1ccc(N(CC(=O)O)S(=O)(=O)c2ccc(OC)c(OC)c2)cc1    6.8e-05 (inactive)
36       N#C/C(C(=O)N1CCCCC1)=C1\Nc2ccccc2S1   -6.2e-05 (inactive)
37  CN1CCc2c(C#N)c(N3CCCCC3)nc(NCc3ccccc3)c2C1   -6.7e-05 (inactive)
38         CCOCC(=O)Nc1sc2c(c1C(=O)OCC)CCCC2   -5.2e-05 (inactive)
39  CCOC(=O)C1=C(c2ccccc2)NC(=O)NC1c1ccc(N(C)C)cc1 (configuration not stated)   -4.5e-05 (inactive)
40  COC(=O)c1cc(-c2c(C)oc3cc(O)ccc3c2=O)c(C)o1    2.7e-05 (inactive)
41  CC(C)(C)OC(=O)NCCc1nnc(SCC(=O)c2ccc(Cl)cc2)o1    1.3e-05 (inactive)
42       c1ccc(-n2ncc3c(NCc4cccs4)ncnc32)cc1   -4.2e-05 (inactive)
43  Cc1ccc(-c2nc(=S)c3c(n2Cc2ccco2)CCCC3)cc1   -0.00017 (inactive)
44  COc1ccc(S(=O)(=O)Cc2ccc(C(=O)NCCc3ccc(S(N)(=O)=O)cc3)o2)cc1   -2.1e-05 (inactive)
45  CCOC(=O)c1sc2nc(N3CCCC3)c3c(c2c1N)CC(C)(C)OC3   -1.6e-05 (inactive)
46  O=C(NC1CCN(Cc2ccccc2)CC1)C1CCN(S(=O)(=O)c2cccc3cccnc23)CC1    7.4e-08 (inactive)

---

ASSAY_INFO: inhibitors of mutant huntingtin aggregation, primary screen, imaging, exon1htt(103Q)mCFP cells, high-content imaging (AID 483);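 also: compound exposure lasted 3 days before fixation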
CONDITION_LABEL: exon1htt(103Q)mCFP cell line, aggregate imaging, at 2 µM; active compounds read high
MEASURED_PARAMETER: inhibition of aggregation (%)

>>> df
                                    compound         measured_parameter  endpoint_result
 0  Cc1ccccc1-n1c(Cn2c(=O)sc3ccccc32)nnc1SCC(=O)N1CCCC1  inhibition of aggregation             13.1
 1  CC1(C)CC(=O)C2=C(C1)OC(=O)C2(NC(=O)c1cccs1)C(F)(F)F (configuration not stated)  inhibition of aggregation              5.3
 2      COC(=O)c1c(NC(=O)CSc2nnnn2C)sc(C)c1C  inhibition of aggregation             -4.7
 3  C=C(C)Cn1c(N2CC(C)CC(C)C2)nc2c1c(=O)[nH]c(=O)n2C (configuration not stated)  inhibition of aggregation             -2.3
 4   CCOC(=O)N1CCN(C(=O)CSc2ncnc3ccccc23)CC1  inhibition of aggregation             -8.8
 5  Cc1ccc2cc(CN(Cc3ccc4c(c3)OCO4)Cc3nnnn3Cc3ccco3)c(=O)[nH]c2c1C  inhibition of aggregation             29.2
 6     OCc1cn(-c2ccccc2)nc1-c1ccc2c(c1)OCCO2  inhibition of aggregation            -10.7
 7  CC(C)CCNC(=O)Cn1c(NCCC(C)C)nc2c1c(=O)n(C)c(=O)n2C  inhibition of aggregation             28.1
 8  COc1cccc(C(=O)Nc2cc(C)c3c(=O)oc4ccccc4c3n2)c1  inhibition of aggregation              9.3
 9  CCOC(=O)N1CCC(c2cc(=O)n3[nH]c(C)c(-c4ccc(F)cc4)c3n2)CC1  inhibition of aggregation            -25.8
10  CN(C)S(=O)(=O)c1ccc(/C(O)=C2/C(=O)C(=O)N(CCN3CCCCC3)C2c2cccnc2)cc1 (configuration not stated)  inhibition of aggregation              5.7
11  CCCCN(C)C(=O)CS(=O)(=O)Cc1nc(-c2cccc(OC)c2)oc1C  inhibition of aggregation             13.9
12  CCc1ccc(N(CC(=O)NC2CCCC2)S(=O)(=O)c2c(C)noc2C)cc1  inhibition of aggregation               -6
13         CC(=O)c1cccc(NC(=O)CCOc2ccccc2)c1  inhibition of aggregation                6
14  CCOC(=O)c1c(NC(=O)COC(=O)c2c(C)noc2C)sc2c1CCC2  inhibition of aggregation             29.9
15  O=C(COc1ccccc1)N1CCN(C(=O)c2cccc(F)c2)CC1  inhibition of aggregation             -0.2
16  Cc1cc(C)c2c(n1)nn1c(C3CC3)cc(C(F)(F)F)nc21  inhibition of aggregation              1.3
17  CCOC(=O)N1CCN(C(=O)CSc2nnc(-c3cc(OC)cc(OC)c3)o2)CC1  inhibition of aggregation            -10.3
18  COc1cc(C(O)c2nc3ccccc3n2C)cc(OC)c1OC (configuration not stated)  inhibition of aggregation             21.2
19  CCCNC(=O)c1ccccc1NC(=O)CN(c1ccccc1OCC)S(C)(=O)=O  inhibition of aggregation              -11
20      Cc1cc(C(=O)NCc2cccnc2)n(-c2ccccc2)n1  inhibition of aggregation            -20.8
21         COc1ccccc1C(=O)N1CCN=C1SCc1cccnc1  inhibition of aggregation            -22.1
